measuredOn: Claudin23 10-mer (Homo sapiens)

# binder, Kd [µM]
records = [
    ("MAGI-3 PDZ6 (M3P6) PDZ6, Q5TCQ9 (protein) GCYPVELERGPRGFGFSLRGGKEYNMGLFILRLAEDGPAIKDGRIHVGDQIVEINGEPTQGITHTRAIELIQAGGNKVLLLLRPGTGLI", 3.6),
]
